Quick reference for self-splicing fitness (ln) among some sequences
assay: self-splicing fitness, log relative to wild type (ln ratio); higher = more splicing; Tetrahymena group I intron in knt gene, E. coli kanamycin selection, DiMSum; sequences stand for … in CUCUCU…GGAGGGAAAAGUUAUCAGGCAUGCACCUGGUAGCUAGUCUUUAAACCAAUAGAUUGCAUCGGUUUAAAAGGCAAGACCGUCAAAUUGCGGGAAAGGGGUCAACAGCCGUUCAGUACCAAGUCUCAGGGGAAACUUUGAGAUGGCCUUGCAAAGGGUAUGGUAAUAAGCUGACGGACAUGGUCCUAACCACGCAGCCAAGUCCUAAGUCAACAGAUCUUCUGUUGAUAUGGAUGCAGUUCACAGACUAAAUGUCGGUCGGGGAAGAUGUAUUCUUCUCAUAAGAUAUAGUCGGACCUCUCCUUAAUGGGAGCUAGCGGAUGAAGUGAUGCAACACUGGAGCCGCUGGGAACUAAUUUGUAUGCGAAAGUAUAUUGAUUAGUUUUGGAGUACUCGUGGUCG; conditions: 37 °C;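 further: selection with 25 µg/mL kanamycin versus none on LB agar overnight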
recorded_metric: self-splicing fitness (ln)

[[record]]
sequence_code = "AGUCAGCAAUAUUACGGUGG"
recorded_metric = "self-splicing fitness (ln)"
reading = -1.79

[[record]]
sequence_code = "CCCAAGCAAUAUUACGAACA"
recorded_metric = "self-splicing fitness (ln)"
reading = -3.04

[[record]]
sequence_code = "CAACAGCAAUAUUACGGAGU"
recorded_metric = "self-splicing fitness (ln)"
reading = -1.22

[[record]]
sequence_code = "AGAUAGCAAUAUUACGUGAA"
recorded_metric = "self-splicing fitness (ln)"
reading = -1.85

[[record]]
sequence_code = "CAUUAGCAAUAUUACGCCUU"
recorded_metric = "self-splicing fitness (ln)"
reading = -1.84

[[record]]
sequence_code = "UGCUAGCAAUAUUACGAAUG"
recorded_metric = "self-splicing fitness (ln)"
reading = 0.288

[[record]]
sequence_code = "GGCUAGCAAUAUUACGGCGC"
recorded_metric = "self-splicing fitness (ln)"
reading = 0.272

[[record]]
sequence_code = "CAUAAGCAAUAUUACGGUUC"
recorded_metric = "self-splicing fitness (ln)"
reading = -3.08

[[record]]
sequence_code = "UCAAAGCAAUAUUACGUACC"
recorded_metric = "self-splicing fitness (ln)"
reading = -1.69

[[record]]
sequence_code = "AUUUAGCAAUAUUACGGCUC"
recorded_metric = "self-splicing fitness (ln)"
reading = 0.0525

[[record]]
sequence_code = "UUAAAGCAAUAUUACGACAA"
recorded_metric = "self-splicing fitness (ln)"
reading = 0.336

[[record]]
sequence_code = "AUCGAGCAAUAUUACGGCGC"
recorded_metric = "self-splicing fitness (ln)"
reading = -0.856

[[record]]
sequence_code = "CCCUAGCAAUAUUACGCCCA"
recorded_metric = "self-splicing fitness (ln)"
reading = -3.76

[[record]]
sequence_code = "GCUUAGCAAUAUUACGAGAG"
recorded_metric = "self-splicing fitness (ln)"
reading = -0.67

[[record]]
sequence_code = "GACAAGCAAUAUUACGGGCU"
recorded_metric = "self-splicing fitness (ln)"
reading = -1.39

[[record]]
sequence_code = "CGCGAGCAAUAUUACGAGGG"
recorded_metric = "self-splicing fitness (ln)"
reading = -2.71

[[record]]
sequence_code = "GUCUAGCAAUAUUACGACCU"
recorded_metric = "self-splicing fitness (ln)"
reading = -1.21

[[record]]
sequence_code = "GUUCAGCAAUAUUACGUACU"
recorded_metric = "self-splicing fitness (ln)"
reading = 0.162

[[record]]
sequence_code = "GCGAAGCAAUAUUACGCUCU"
recorded_metric = "self-splicing fitness (ln)"
reading = -1.49

[[record]]
sequence_code = "UUUUAGCAAUAUUACGUUCG"
recorded_metric = "self-splicing fitness (ln)"
reading = -1.34

[[record]]
sequence_code = "AAUUAGCAAUAUUACGCUGA"
recorded_metric = "self-splicing fitness (ln)"
reading = -2.42

[[record]]
sequence_code = "GGGUAGCAAUAUUACGGUCU"
recorded_metric = "self-splicing fitness (ln)"
reading = -0.011

[[record]]
sequence_code = "ACGGAGCAAUAUUACGCGAG"
recorded_metric = "self-splicing fitness (ln)"
reading = -1.35

[[record]]
sequence_code = "UUUCAGCAAUAUUACGACAA"
recorded_metric = "self-splicing fitness (ln)"
reading = -0.913

[[record]]
sequence_code = "AGCAAGCAAUAUUACGUUAU"
recorded_metric = "self-splicing fitness (ln)"
reading = -1.54

[[record]]
sequence_code = "UCUAAGCAAUAUUACGUUAA"
recorded_metric = "self-splicing fitness (ln)"
reading = -1.67

[[record]]
sequence_code = "AUCUAGCAAUAUUACGUCCG"
recorded_metric = "self-splicing fitness (ln)"
reading = -1.42

[[record]]
sequence_code = "CAAAAGCAAUAUUACGAAGU"
recorded_metric = "self-splicing fitness (ln)"
reading = -2.23

[[record]]
sequence_code = "UGGCAGCAAUAUUACGGGAA"
recorded_metric = "self-splicing fitness (ln)"
reading = -0.784

[[record]]
sequence_code = "AACUAGCAAUAUUACGGGGG"
recorded_metric = "self-splicing fitness (ln)"
reading = -1.53

[[record]]
sequence_code = "CGUGAGCAAUAUUACGGUUA"
recorded_metric = "self-splicing fitness (ln)"
reading = -2.98

[[record]]
sequence_code = "AUAUAGCAAUAUUACGGGGA"
recorded_metric = "self-splicing fitness (ln)"
reading = -1.72

[[record]]
sequence_code = "GGCAAGCAAUAUUACGCGUA"
recorded_metric = "self-splicing fitness (ln)"
reading = -0.212

[[record]]
sequence_code = "ACGCAGCAAUAUUACGUCCU"
recorded_metric = "self-splicing fitness (ln)"
reading = 0.354

[[record]]
sequence_code = "GAUCAGCAAUAUUACGGACG"
recorded_metric = "self-splicing fitness (ln)"
reading = -0.212

[[record]]
sequence_code = "GCUGAGCAAUAUUACGGCGA"
recorded_metric = "self-splicing fitness (ln)"
reading = -1.56

[[record]]
sequence_code = "CUGCAGCAAUAUUACGCGAC"
recorded_metric = "self-splicing fitness (ln)"
reading = -0.91

[[record]]
sequence_code = "ACUGAGCAAUAUUACGAUCA"
recorded_metric = "self-splicing fitness (ln)"
reading = -2.9

[[record]]
sequence_code = "UGCUAGCAAUAUUACGCAGU"
recorded_metric = "self-splicing fitness (ln)"
reading = -2.51

[[record]]
sequence_code = "CAUCAGCAAUAUUACGCUGC"
recorded_metric = "self-splicing fitness (ln)"
reading = -2.61

[[record]]
sequence_code = "UUCCAGCAAUAUUACGUAAA"
recorded_metric = "self-splicing fitness (ln)"
reading = 0.616

[[record]]
sequence_code = "CCGAAGCAAUAUUACGCACU"
recorded_metric = "self-splicing fitness (ln)"
reading = -2.68

[[record]]
sequence_code = "ACCUAGCAAUAUUACGCAGA"
recorded_metric = "self-splicing fitness (ln)"
reading = -1.11

[[record]]
sequence_code = "CAGUAGCAAUAUUACGUCCG"
recorded_metric = "self-splicing fitness (ln)"
reading = 1.29

[[record]]
sequence_code = "GACGAGCAAUAUUACGGCCC"
recorded_metric = "self-splicing fitness (ln)"
reading = -0.45

[[record]]
sequence_code = "AAUCAGCAAUAUUACGUCCC"
recorded_metric = "self-splicing fitness (ln)"
reading = 0.164

[[record]]
sequence_code = "GCGGAGCAAUAUUACGUCGA"
recorded_metric = "self-splicing fitness (ln)"
reading = -1.83

[[record]]
sequence_code = "CCUAAGCAAUAUUACGUGAU"
recorded_metric = "self-splicing fitness (ln)"
reading = -2.71

[[record]]
sequence_code = "ACUAAGCAAUAUUACGGUUG"
recorded_metric = "self-splicing fitness (ln)"
reading = -2.5

[[record]]
sequence_code = "GCAUAGCAAUAUUACGGGUU"
recorded_metric = "self-splicing fitness (ln)"
reading = -0.302

[[record]]
sequence_code = "UGCUAGCAAUAUUACGCUGG"
recorded_metric = "self-splicing fitness (ln)"
reading = -2.25

[[record]]
sequence_code = "CGCGAGCAAUAUUACGGGUG"
recorded_metric = "self-splicing fitness (ln)"
reading = -1.68

[[record]]
sequence_code = "AGAGAGCAAUAUUACGAUGA"
recorded_metric = "self-splicing fitness (ln)"
reading = -2.37

[[record]]
sequence_code = "AGCAAGCAAUAUUACGAUAG"
recorded_metric = "self-splicing fitness (ln)"
reading = -2.04

[[record]]
sequence_code = "UUAGAGCAAUAUUACGUUUA"
recorded_metric = "self-splicing fitness (ln)"
reading = -0.913

[[record]]
sequence_code = "UAUAAGCAAUAUUACGGAAU"
recorded_metric = "self-splicing fitness (ln)"
reading = -0.6

[[record]]
sequence_code = "GCGAAGCAAUAUUACGUAGA"
recorded_metric = "self-splicing fitness (ln)"
reading = -1.75

[[record]]
sequence_code = "AGCUAGCAAUAUUACGCCGC"
recorded_metric = "self-splicing fitness (ln)"
reading = -3.06

[[record]]
sequence_code = "GUCCAGCAAUAUUACGUUCC"
recorded_metric = "self-splicing fitness (ln)"
reading = -0.198

[[record]]
sequence_code = "AACCAGCAAUAUUACGUAUU"
recorded_metric = "self-splicing fitness (ln)"
reading = -0.754

[[record]]
sequence_code = "AUUUAGCAAUAUUACGGACG"
recorded_metric = "self-splicing fitness (ln)"
reading = -1.75

[[record]]
sequence_code = "UAUCAGCAAUAUUACGAGUC"
recorded_metric = "self-splicing fitness (ln)"
reading = -1.81

[[record]]
sequence_code = "ACGCAGCAAUAUUACGGAGA"
recorded_metric = "self-splicing fitness (ln)"
reading = -2.41

